B1: C8orf76 (parent)
chain: KLAEAYLNLGPALSAALASSQKQH

Variants of: B1
assay.details: protein stability index of a GFP-peptide fusion (GPS, HEK-293T) (PSI 1-6); higher = more stable;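 further: lentivirally expressed fusions sorted by FACS into six bins by GFP to DsRed ratio, PSI derived from sequencing read proportions per bin multiplied by bin number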
condition.info: c terminus: a fixed tail appended
measured.metric: protein stability index
One number for each entry.

Here's what some known entries look like.
{"columns": ["sequence.record", "measured.metric", "reported"],
 "data": [
  ["VLAEAYLNLGPALSAALASSQKQH", "protein stability index", 2.25],
  ["KLAEAYLNLGEALSAALASSQKQH", "protein stability index", 2.52],
  ["KLAEAYLNLGPAISAALASSQKQH", "protein stability index", 3.23],
  ["KLAEAYLNLGPQLSAALASSQKQH", "protein stability index", 1.73],
  ["KLAEAYLNLGPALSAALAFSQKQH", "protein stability index", 2.5],
  ["KLAEATLNLGPALSAALASSQKQH", "protein stability index", 1.85],
  ["KLAEAYLNLGMALSAALASSQKQH", "protein stability index", 2.9],
  ["KLAEAYLNLGPALSAALASSQKQQ", "protein stability index", 3.32]
]}

Below are 3 variants. Give each one its protein stability index.
1. KLAEAYLNLGPALSAALASSQRQH
2. KLAEAYLNLGPALSAALAPSQKQH
3. KLAEAYLNLGPALSAACASSQKQH

Return:
1. 4.21
2. 2.08
3. 1.6
